Test: Rat serum stability studies (remaining active peptide by DiscoveRx cAMP on CHO-VPAC2 cells)
Format: in vitro ADME
Where no end group is shown, it is not given here. [ ]: non-standard residue; d: D form. The star is where a group is joined. Cit = NC(=O)NCCC[C@H](N)C(=O)O; Hexanoyl = CCCCCC(=O)*; Aib = CC(C)(N)C(=O)O
Assay Metric: Rat Serum Stability (estimated purity in % after 18 hours) (%)
Numbers only, in %.

Use these answered entries as a reference point.
> print(dat)
                                  substance  observed.value
1  Hexanoyl-HSDAVFTDNYTRLR[Aib]QAAA[Aib]KYLQSIKNKRYGGPSSGAPPPS [Agonist P324]           13.64
2  Hexanoyl-HSDAVFTDNYTRLRKQVAAKLYLQSIKNKRYGGPSSGAPPPS [Agonist P185]            0.27

Quick batch: Rat Serum Stability (estimated purity in % after 18 hours) for everything below.
1. Hexanoyl-HSDAVFTDNYTRLRAQVAAQKYLQSIKNKRYGGPSSGAPPPS [Agonist P138]
2. Hexanoyl-HGEGTFTDNYTRLRKQVAAKKYLQSIKNKRYGGPSSGAPPPS [Agonist P222]
3. Hexanoyl-HSDAVFTDNYTRL[Cit][Aib]QVAA[Aib]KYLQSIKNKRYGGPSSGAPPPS [Agonist P320]

output:
[0.48, 0.23, 28.59]

###

Molecular target: human VPAC2 (Homo sapiens)
Construct: expressed in transfected cells
Sequence (P41587 24-438): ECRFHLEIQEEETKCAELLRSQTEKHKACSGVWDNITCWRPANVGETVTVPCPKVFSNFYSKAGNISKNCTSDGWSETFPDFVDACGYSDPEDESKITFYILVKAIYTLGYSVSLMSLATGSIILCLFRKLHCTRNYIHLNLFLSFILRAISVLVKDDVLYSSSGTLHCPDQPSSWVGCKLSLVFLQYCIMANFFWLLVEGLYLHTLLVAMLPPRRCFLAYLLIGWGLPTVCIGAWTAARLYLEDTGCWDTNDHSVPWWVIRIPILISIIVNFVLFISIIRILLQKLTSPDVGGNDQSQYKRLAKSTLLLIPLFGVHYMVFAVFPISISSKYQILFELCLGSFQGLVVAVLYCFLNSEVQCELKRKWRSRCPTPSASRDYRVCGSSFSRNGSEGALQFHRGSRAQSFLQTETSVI
Assay: Alpha screen cAMP in vitro potency, human VPAC2 receptor
Assay type: cell-based
Details: cAMP generation; single result from two analyses performed in a single run; read-out: Human VPAC2 Receptor: Alpha Screen EC50
Where no end group is shown, it is not given here. [ ]: non-standard residue; d: D form. The star is where a group is joined. Hexanoyl = CCCCCC(=O)*; Mpa = O=C(O)CCS
Assay Metric: pEC50
Answers are plain numbers, as −log10 of the molar value.

> print(dat)
                                  substance  observed.value
1  Hexanoyl-HSDAVFTDNYTRLRKQVAAAKYLQSIKNKRYGGPSSGAPPPS [Agonist P181]            9.89

Quick batch: pEC50 for everything below.
1. [Mpa]HSDAVFTDNYTRLLAKLALQKYLQSIKNKRYGGPSSGAPPPS [Agonist P205]
2. Hexanoyl-HSDAVFTDNYTRLFKQVAAKKYLQSIKNKRYGGPSSGAPPPS [Agonist P175]
3. Hexanoyl-HSDAVFTANYTRLRKQVAAKKYLQSIKNKRYGGPSSGAPPPS [Agonist P158]
4. Hexanoyl-HSDALFTDNYTRLRKQVAAKKYLQSIKNKRYGGPSSGAPPPS [Agonist P289]
5. Hexanoyl-HSDAVFTDNYTRLRK(Ac)QVAAK(Ac)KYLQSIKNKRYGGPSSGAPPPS [Agonist P193]
6. Hexanoyl-HSDAVFTDNYTRLRKQVAAKKYLQSTKNKRYGGPSSGAPPPS [Agonist P108]
7. Hexanoyl-HSD[dA]VFTDNYTRLRKQVAAKKYLQSIKNKRYGGPSSGAPPPS [Agonist P207]

output:
[8.94, 9.17, 9.96, 9.80, 9.74, 9.57, 9.07]

###

Target: rat VPAC2 receptor (Rattus norvegicus, UniProt P35000)
Sequence (P35000 23-437): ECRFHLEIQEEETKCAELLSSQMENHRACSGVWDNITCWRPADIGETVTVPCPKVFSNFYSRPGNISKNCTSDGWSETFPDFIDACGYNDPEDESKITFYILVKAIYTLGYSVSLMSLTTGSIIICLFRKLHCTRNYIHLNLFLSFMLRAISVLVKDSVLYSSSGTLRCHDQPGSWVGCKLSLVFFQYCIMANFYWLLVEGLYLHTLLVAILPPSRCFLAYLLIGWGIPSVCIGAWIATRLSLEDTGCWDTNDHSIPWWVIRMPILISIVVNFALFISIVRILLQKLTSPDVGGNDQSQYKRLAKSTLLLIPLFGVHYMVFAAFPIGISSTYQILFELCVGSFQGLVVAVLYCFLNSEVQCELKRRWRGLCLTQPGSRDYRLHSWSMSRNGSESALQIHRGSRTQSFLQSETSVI
Assay: Adenylate cyclase activation on membrane preparations expressing rat VPAC2 receptor
Type: biochemical
Parameters: expressed in transfected cells; host or cells: CHO cells, crude membranes
Where no end group is shown, it is not given here.
Assay Metric: pEC50
Numbers only, as −log10 of the molar value.

Record H-MHSDAVFTDNYTRLRKQVAAKKYLQSIKNKRYGGPSSGAPPPS [Agonist P104] . Reported pEC50: 9.00

###

Task for the reader: assign each of the following substances its reported Cmax.
Experiment: in vivo
Settings: Wistar, rat, iv, 10 ug/kg
Where no end group is shown, it is not given here. [ ]: non-standard residue; d: D form. The star is where a group is joined. Hexanoyl = CCCCCC(=O)*; Aib = CC(C)(N)C(=O)O
One number for each entry, in nM.

Use these answered entries as a reference point.
> print(dat)
                                  substance  observed.value
1  Hexanoyl-HSDAVFTDNYTRLR[Aib]QVAAK[Aib]YLQSIKNKRYGGPSSGAPPPS [Agonist P264]            0.96
2  HSDAVFTDNYTRLLAKVAAKKYLQSIKNKRYGGPSSGAPPPS [Agonist P89]            5.45
3  Hexanoyl-HSDAVFTDNYTRLRKQVAAKKYLQSIKNKRYGGPSSGAPPPS [Agonist P31]            4.37

Let us examine a further case.
Record Hexanoyl-HSDAVFTDNYTRLR[Aib]QVAA[Aib]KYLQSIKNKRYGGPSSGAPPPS [Agonist P261] . Reported Cmax: 12.1

###

Task for the reader: assign each of the following substances its reported pIC50.
Biological target: human PAC1 (Homo sapiens)
Sequence (P41586 21-468): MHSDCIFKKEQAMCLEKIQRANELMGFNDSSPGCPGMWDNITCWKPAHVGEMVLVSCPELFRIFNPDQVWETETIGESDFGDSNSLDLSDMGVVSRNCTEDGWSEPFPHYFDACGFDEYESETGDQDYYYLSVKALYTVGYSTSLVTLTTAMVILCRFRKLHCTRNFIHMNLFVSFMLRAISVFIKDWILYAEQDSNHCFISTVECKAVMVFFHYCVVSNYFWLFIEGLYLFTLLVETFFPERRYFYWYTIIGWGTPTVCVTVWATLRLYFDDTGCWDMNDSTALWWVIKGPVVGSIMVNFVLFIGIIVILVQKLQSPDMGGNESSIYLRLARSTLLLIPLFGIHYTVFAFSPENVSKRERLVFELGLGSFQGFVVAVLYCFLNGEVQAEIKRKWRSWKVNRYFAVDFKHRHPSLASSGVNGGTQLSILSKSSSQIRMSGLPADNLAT
Experiment: Filter binding assay, membranes of cells transiently transfected with human PAC1, 125I-labeled PACAP-27 tracer (Table 2)
Set-up: expressed in transfected cells
Details: read-out: Human PAC1 Receptor Binding
Where no end group is shown, it is not given here. The star is where a group is joined. Hexanoyl = CCCCCC(=O)*
One number for each entry, as −log10 of the molar value.

> print(dat)
                                  substance  assay.metric  observed.value
1  Hexanoyl-HSDAVFTEEYTRLQKQVAAKQYLQSIKNKRYGGPSSGAPPPS [Agonist P165]         pIC50            5.54

Let us examine a further case.
Record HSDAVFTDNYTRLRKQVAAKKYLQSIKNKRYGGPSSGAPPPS [Agonist P6] . Reported pIC50: 6.48

###

Experiment: Rat serum stability studies (remaining active peptide by DiscoveRx cAMP on CHO-VPAC2 cells)
Format: in vitro ADME
Where no end group is shown, it is not given here. [ ]: non-standard residue; d: D form. The star is where a group is joined. Hexanoyl = CCCCCC(=O)*; Aib = CC(C)(N)C(=O)O
Assay Metric: Rat Serum Stability (estimated purity in % after 18 hours) (%)
Numbers only, in %.

> print(dat)
                                  substance  observed.value
1  Hexanoyl-HSDAVFTDNYTRL[Aib]KQVAAKQYLQSIKNKRYGGPSSGAPPPS [Agonist P249]            12.9
2  Hexanoyl-HSDAVFTDNYTRL[Aib]KQLAA[Aib]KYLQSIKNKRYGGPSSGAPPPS [Agonist P240]           43.87
3  Hexanoyl-HSDAVFTDNYTRL[Aib]KQVAAQKYLQSIKNKRYGGPSSGAPPPS [Agonist P243]           12.12

Let us examine a further case.
Record Hexanoyl-HSDAVFTDNYTRLRKQVAAKRYLQSIKNKRYGGPSSGAPPPS [Agonist P182] . Reported Rat Serum Stability (estimated purity in % after 18 hours): 0.15
